Molecular target: DHODH (Homo sapiens)
Construct: purchased Reaction Biology (contract assay)
Sequence (Q02127 whole entry): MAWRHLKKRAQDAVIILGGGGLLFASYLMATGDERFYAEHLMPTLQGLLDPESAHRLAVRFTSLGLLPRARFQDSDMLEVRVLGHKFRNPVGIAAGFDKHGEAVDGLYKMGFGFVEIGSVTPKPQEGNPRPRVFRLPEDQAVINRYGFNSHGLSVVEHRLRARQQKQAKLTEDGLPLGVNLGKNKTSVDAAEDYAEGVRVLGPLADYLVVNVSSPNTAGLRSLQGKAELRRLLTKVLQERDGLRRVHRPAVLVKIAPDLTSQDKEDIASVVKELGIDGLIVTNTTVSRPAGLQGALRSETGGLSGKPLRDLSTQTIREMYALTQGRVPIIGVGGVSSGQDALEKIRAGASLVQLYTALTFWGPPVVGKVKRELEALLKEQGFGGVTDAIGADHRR
Assay: DHODH enzyme activity assay (Resorufin fluorescence, Reaction Biology)
Format: biochemical
Conditions: Fig. 7B
Procedure: DHODH enzyme activity was determined via fluorescence-based quantification (Resorufin fluorescence as endpoint measurement) at Reaction Biology. Reference compound BAY2402234 was measured in singletons in two biological replicates and compounds were measured in technical replicates within the indicated dose-ranges. […]
Please note: IC50s DHODH assay: Hill-Slope exactly at -5 is Criterion not met. Only values below -5 get Criterion met.

# compound, classification
rows = [
    ("CCc1c(C(=O)N(C)Cc2cnn(C(C)C)c2)[nH]c2ccccc12", "Criterion not met"),
    ("Cc1nn(-c2nc3ccccc3s2)c(O)c1C1OC(=O)c2ccccc21 (centres unmarked)", "Criterion not met"),
]

For COc1cccc(CNc2ccc(N3CCCCC3)cc2)c1OCc1cccs1 , is the recorded IC50s DHODH assay: Hill-Slope below the cut-off of -5?
Criterion met

IC50s DHODH assay: Hill-Slope strictly < -5 for this compound? Cc1ccc2[nH]c3c(c2c1)CCOC31CCN(Cc2ccccc2-c2ccccc2)CC1
Criterion met

* * *

Would you mind telling me the reported activity at 25 µM of each entry?
Tested on: Notch signalling
Assay: Notch reporter assay (12xCSL firefly luciferase / renilla luciferase, HEK293T Notch1ΔE reporter cell line clone #A1-11)
Assay type: cell-based
Conditions: Homo sapiens, HEK-293T; 25 µM; Notch reporter 3-point dose-confirmation assay; sheet "conf vs counter 25 µM"; read-out: Confirmation screen
Give bare numbers, in %.

# compound, activity at 25 µM (%)
records = [
    ("CC(=O)N1CCc2sccc2C1c1ccccc1NCc1ccoc1 (centres unmarked)", 45.5),
    ("CCOc1ccccc1-c1ccccc1NC(=O)c1ccc2c(c1)ncn2C1CC1", 45.7),
    ("O=C(Nc1nnc(-c2ccc3c(c2)OCCO3)o1)c1ccccc1F", 37.6),
    ("COc1cccc(CNc2ccc(N3CCOCC3)cc2)c1OCc1ccccc1F", 66.7),
]

// for each compound below, give its activity at 25 µM
1. Cc1[nH]c2cccc(C(=O)N3CCCCC3CCNC(=O)c3ccccc3)c2c1C (centres unmarked)
2. Cc1ccccc1Nc1nc(N)nc(CN2CCCC(C(F)(F)F)C2)n1 (centres unmarked)
3. Cc1ccc(-c2noc([C@@H]3Cc4[nH]cnc4CN3C(=O)CCC(=O)O)n2)cc1
4. NC(=O)c1c(NC(=O)NCc2cccnc2)sc2c1CCC2
5. Cc1ccc2[nH]c3c(c2c1)CCOC31CCN(Cc2ccccc2-c2ccccc2)CC1
6. Cc1nn(-c2nc3ccccc3s2)c(O)c1C1OC(=O)c2ccccc21 (centres unmarked)
7. CC1CCc2c(sc3ncnc(NCCCN4CCCCCC4=O)c23)C1 (centres unmarked)

1: 38.3; 2: 48.4; 3: 32.2; 4: 55.6; 5: 69.3; 6: 35.2; 7: 46.7

* * *

Molecular target: γ-secretase complex (Homo sapiens, UniProt P49768)
Assay: APP-C99 counter assay (GSI reporter assay)
Assay type: cell-based
Conditions: 10µM; APP-C99 counter assay
For each entry below, report its 3p-DR in % of DMSO counter value.

Completed entries (count: 4):
# compound, measurement
data = [
    ("C[C@@H]1C(=O)O[C@H]2[C@H]1CC[C@@]1(C)Cc3sc(NC(=O)CN(C)C)nc3[C@@H](C)[C@H]21", "58.4 % of DMSO"),
    ("COc1cccc(OCC2CCCN(C(=O)CCc3cnn(C)c3)C2)c1 (centres unmarked)", "59.0 % of DMSO"),
    ("COc1ccc(N(CC(O)CN2CCOCC2)S(=O)(=O)c2ccccc2)cc1 (centres unmarked)", "81.1 % of DMSO"),
    ("CC(C)Nc1cncc(OCc2ccc(Cl)c(Cl)c2)n1", "31.9 % of DMSO"),
]

Lab note: next compound to report on.
Consider the compound O=C(NC(Nc1cccc(C(F)(F)F)c1)C(=O)c1ccccc1)c1ccc(Cl)cc1 (centres unmarked) tested on γ-secretase complex (Homo sapiens, UniProt P49768); state its 3p-DR in % of DMSO counter.
79.4 % of DMSO
